Reported pIC50 by item:
biological target: c-Mer (Homo sapiens (Human), UniProt Q12866)
Sequence (Q12866 21-999): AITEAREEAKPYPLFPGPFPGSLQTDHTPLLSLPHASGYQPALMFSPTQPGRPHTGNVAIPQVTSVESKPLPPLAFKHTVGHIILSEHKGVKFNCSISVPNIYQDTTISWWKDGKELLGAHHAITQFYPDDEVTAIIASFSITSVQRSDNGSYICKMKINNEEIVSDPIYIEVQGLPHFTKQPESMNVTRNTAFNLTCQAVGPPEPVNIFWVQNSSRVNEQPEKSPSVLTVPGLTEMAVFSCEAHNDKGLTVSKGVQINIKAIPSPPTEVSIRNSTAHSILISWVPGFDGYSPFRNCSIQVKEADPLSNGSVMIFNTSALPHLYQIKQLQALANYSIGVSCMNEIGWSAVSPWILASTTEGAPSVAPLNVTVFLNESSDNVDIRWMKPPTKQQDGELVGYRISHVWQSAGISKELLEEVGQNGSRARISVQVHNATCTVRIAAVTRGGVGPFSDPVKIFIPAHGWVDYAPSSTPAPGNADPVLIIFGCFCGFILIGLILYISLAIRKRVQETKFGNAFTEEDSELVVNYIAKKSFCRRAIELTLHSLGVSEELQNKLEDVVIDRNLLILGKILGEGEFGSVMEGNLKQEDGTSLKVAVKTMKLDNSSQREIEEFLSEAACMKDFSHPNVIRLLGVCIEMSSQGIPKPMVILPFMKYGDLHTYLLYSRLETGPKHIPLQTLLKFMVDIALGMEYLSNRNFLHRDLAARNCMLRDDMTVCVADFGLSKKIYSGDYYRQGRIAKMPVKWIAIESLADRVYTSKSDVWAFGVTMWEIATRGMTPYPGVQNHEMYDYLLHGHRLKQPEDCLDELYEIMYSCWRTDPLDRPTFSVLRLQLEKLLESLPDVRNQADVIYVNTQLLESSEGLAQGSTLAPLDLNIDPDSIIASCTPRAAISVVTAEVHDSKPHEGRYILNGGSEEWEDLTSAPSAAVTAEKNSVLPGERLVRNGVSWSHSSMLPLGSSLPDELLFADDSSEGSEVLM
pIC50: −log10 of the molar value.

Example compounds with recorded pIC50:
- COMPOUND: "CCCCNc1ncc2c(-c3ccc(CN4CCN(C)CC4)cc3)nc([C@H]3CC[C@H](O)CC3)n2n1 [1 (1st peak, trans-)]"
  pIC50: "≥ 7.00"
- COMPOUND: "CCCCNc1ncc2c(-c3ccc(CO)cc3)nc([C@H]3CC[C@@H](O)CC3)n2n1 [3 (2nd peak, cis-)]"
  pIC50: "< 6.00"
- COMPOUND: "CCCCNc1ncc2c(-c3ccc(CN4CCOCC4)cc3)nc([C@H]3CC[C@H](O)CC3)n2n1 [2 (1st peak, trans-)]"
  pIC50: "≥ 7.00"

Next up:
**Q:** Enter reported pIC50 observed with c-Mer (Homo sapiens (Human), UniProt Q12866) for CCCCNc1ncc2c(-c3ccc(CO)cc3)nc([C@H]3CC[C@H](O)CC3)n2n1 [3 (1st peak, trans-)]
**A:** ≥ 7.00

----------
Reported pIC50 by item:
biological target: Tyro3 (Homo sapiens (Human), UniProt Q06418)
Sequence (Q06418 41-890): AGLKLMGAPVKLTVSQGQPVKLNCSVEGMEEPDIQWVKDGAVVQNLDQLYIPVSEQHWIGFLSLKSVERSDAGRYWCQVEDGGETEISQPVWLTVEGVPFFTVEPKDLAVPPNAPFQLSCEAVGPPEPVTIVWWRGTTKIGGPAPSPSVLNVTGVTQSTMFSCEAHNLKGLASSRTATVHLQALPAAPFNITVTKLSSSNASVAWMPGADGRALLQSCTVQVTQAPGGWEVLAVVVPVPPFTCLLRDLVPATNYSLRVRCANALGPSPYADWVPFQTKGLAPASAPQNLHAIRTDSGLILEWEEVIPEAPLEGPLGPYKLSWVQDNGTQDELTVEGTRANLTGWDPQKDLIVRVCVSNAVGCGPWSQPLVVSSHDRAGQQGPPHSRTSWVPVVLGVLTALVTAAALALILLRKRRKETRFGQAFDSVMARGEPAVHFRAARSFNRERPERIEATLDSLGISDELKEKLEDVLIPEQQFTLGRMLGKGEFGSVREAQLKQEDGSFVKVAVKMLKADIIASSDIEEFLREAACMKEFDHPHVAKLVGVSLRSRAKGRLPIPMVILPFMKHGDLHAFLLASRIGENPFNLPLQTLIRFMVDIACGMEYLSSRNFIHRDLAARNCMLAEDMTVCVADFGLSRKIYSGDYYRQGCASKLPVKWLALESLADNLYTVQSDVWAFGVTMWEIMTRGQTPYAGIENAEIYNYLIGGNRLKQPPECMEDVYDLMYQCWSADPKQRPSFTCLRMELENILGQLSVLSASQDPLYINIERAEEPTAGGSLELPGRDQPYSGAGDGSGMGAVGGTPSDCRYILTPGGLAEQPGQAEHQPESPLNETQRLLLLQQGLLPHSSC
pIC50: −log10 of the molar value.

Example molecules with recorded pIC50:
- MOLECULE: "CCCCNc1ncc2c(-c3ccc(CN4CCOCC4)cc3)nc([C@H]3CC[C@@H](O)CC3)n2n1 [2 (2nd peak, cis-)]"
  SYSTEM_UNDER_TEST: "Tyro3 (Homo sapiens (Human), UniProt Q06418)"
  pIC50: "6.30 to 7.00"
- MOLECULE: "CCCCNc1ncc2c(-c3ccc(N4CCOCC4)c(F)c3)nc(C3CCC(O)CC3)n2n1 (single isomer, unassigned) [7 (1st peak)]"
  SYSTEM_UNDER_TEST: "Tyro3 (Homo sapiens (Human), UniProt Q06418)"
  pIC50: "6.00 to 6.30"

**Q:** For the molecule shown here, CCCCNc1ncc2c(-c3ccc(CN4CCN(C)CC4)cc3)nc([C@H]3CC[C@H](O)CC3)n2n1 [1 (1st peak, trans-)] , give the reported pIC50.
**A:** 6.30 to 7.00

**Q:** Thanks! And CCCCNc1ncc2c(-c3ccc(CN4CCOCC4)cc3)nc([C@H]3CC[C@H](O)CC3)n2n1 [2 (1st peak, trans-)] ?
**A:** 6.30 to 7.00

**Q:** Thanks! And CCCCNc1ncc2c(-c3ccc(CN4CCN(C)CC4)cc3)nc([C@H]3CC[C@@H](O)CC3)n2n1 [1 (2nd peak, cis-)] ?
**A:** 6.30 to 7.00

----------
Reported pIC50 by item:
target: phosphor-Axl (Homo sapiens (Human), UniProt P30530)
Sequence (P30530 26-894): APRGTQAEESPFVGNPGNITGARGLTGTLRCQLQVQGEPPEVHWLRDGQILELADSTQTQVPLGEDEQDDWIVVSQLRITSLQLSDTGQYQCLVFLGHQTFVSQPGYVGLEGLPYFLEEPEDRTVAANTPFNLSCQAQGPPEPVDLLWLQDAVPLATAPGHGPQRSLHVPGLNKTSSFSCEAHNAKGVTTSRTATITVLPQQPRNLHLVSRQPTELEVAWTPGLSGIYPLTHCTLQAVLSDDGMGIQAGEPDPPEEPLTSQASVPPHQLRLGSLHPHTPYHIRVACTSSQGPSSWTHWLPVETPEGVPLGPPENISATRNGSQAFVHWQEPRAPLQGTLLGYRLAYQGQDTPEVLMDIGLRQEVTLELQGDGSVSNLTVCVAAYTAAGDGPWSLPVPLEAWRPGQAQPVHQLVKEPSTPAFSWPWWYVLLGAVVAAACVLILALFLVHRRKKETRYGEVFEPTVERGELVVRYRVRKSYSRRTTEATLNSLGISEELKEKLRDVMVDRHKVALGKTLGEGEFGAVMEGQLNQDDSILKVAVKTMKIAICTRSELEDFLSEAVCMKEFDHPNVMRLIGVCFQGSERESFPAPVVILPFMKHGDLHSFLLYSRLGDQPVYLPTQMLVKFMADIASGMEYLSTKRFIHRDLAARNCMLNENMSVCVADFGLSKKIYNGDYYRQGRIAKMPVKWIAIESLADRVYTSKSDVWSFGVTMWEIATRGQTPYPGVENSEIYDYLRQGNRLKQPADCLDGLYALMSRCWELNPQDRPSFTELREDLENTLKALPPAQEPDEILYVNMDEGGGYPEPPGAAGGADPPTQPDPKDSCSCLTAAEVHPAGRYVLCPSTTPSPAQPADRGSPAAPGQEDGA
pIC50: −log10 of the molar value.

Example compounds with recorded pIC50:
- COMPOUND: "CCCCNc1ncc2c(-c3ccc(CN4CCOCC4)cc3)nc([C@H]3CC[C@@H](O)CC3)n2n1 [2 (2nd peak, cis-)]"
  pIC50: "6.30 to 7.00"
- COMPOUND: "CCCCNc1ncc2c(-c3ccc(N4CCOCC4)c(F)c3)nc(C3CCC(O)CC3)n2n1 (single isomer, unassigned) [7 (2nd peak)]"
  pIC50: "< 6.00"
- COMPOUND: "CCCCNc1ncc2c(-c3ccc(N4CCOCC4)c(F)c3)nc(C3CCC(O)CC3)n2n1 (single isomer, unassigned) [7 (1st peak)]"
  pIC50: "6.30 to 7.00"

Next up:
**Q:** Enter reported pIC50 observed with phosphor-Axl (Homo sapiens (Human), UniProt P30530) for CCCCNc1ncc2c(-c3ccc(CN4CCN(C)CC4)cc3)nc([C@H]3CC[C@H](O)CC3)n2n1 [1 (1st peak, trans-)]
**A:** ≥ 7.00

----------
Quick note: these are IC50 numbers for system: UniProt Q12866

Example compounds with recorded IC50:
- COMPOUND: "CCCCNc1ncc2c(-c3cccc(CO)c3)nc(C3CCC(O)CC3)n2n1 (single isomer, unassigned) [8 (1st peak)]"
  SYSTEM_UNDER_TEST: "UniProt Q12866"
  IC50: "≤ 100 nM"
- COMPOUND: "CCCCNc1ncc2c(-c3ccc(CN4CCN(C)CC4)cc3)nc([C@H]3CC[C@@H](O)CC3)n2n1 [1 (2nd peak, cis-)]"
  SYSTEM_UNDER_TEST: "UniProt Q12866"
  IC50: "≤ 100 nM"

Next up:
**Q:** For the compound shown here, CCCCNc1ncc2c(-c3ccc(CN4CCOCC4)cc3)nc([C@H]3CC[C@@H](O)CC3)n2n1 [2 (2nd peak, cis-)] , give the reported IC50.
**A:** ≤ 100 nM
